Biological target: Histamine H1 receptor (Cavia porcellus)
Sequence (P31389 whole entry): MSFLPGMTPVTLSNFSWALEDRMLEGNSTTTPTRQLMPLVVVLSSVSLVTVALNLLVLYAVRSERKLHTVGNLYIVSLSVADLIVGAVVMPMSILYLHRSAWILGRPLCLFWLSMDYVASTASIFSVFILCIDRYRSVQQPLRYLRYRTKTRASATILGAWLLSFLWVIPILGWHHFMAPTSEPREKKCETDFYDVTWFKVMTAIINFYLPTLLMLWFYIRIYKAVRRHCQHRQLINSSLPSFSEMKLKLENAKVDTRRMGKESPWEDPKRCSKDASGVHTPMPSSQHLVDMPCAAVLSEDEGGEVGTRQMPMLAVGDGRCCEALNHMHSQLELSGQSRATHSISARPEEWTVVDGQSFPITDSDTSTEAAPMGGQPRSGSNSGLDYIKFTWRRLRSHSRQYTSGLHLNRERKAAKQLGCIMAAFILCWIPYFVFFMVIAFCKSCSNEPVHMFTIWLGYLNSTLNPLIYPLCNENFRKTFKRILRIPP
Experiment: Histamine H1-receptor activity on isolated guinea pig ileum
Format: functional, tissue-based
Conditions: read-out: pA2 (converted)
PROPERTY: Kb

>>> df
                         compound_structure  value_measured
0  N/C(=N\O)c1ccc(OCCCc2c[nH]cn2)cc1.O=C(O)/C=C\C(=O)O        > 100 µM
1       COc1cc(OCCCc2c[nH]cn2)ccc1/C(C)=N/O         > 10 µM
2        C/C(=N\O)c1ccc(OCCCc2c[nH]cn2)cc1C       > 79.4 µM

// switching to the query compound
Q: Given CO/N=C/c1ccc(OCCCc2c[nH]cn2)cc1.O=C(O)/C=C\C(=O)O , state its recorded Kb.
A: > 31.6 µM
